# System: IGROV1 ovarian
# protocol_details: NCI-60 one-dose screen, 48 h
# test_settings: 10 µM
Compounds without any hit were thinned out: in the full panel of roughly 83,000, 20% have a hit. Calls of active or inactive are those of the source. How the source made its calls: active means growth percent below 10; inactive means the rest.
Assign a class; possible classes are active, inactive

Please state the recorded outcome for this compound: O=[N+]([O-])C1CC2C=CC1C2 (stereo unspecified)
inactive

Outcome logged for O=C1/C(=C/c2ccc(O)cc2)Oc2ccc(Cl)cc21 in this assay:
active

Please let me know the test result on file for O=C(COc1ccc(Cl)cc1Cl)Oc1coc(CSc2nc3ccccc3s2)cc1=O .
inactive

For this compound, state the assay outcome: COC1OC2COC(c3ccccc3)OC2C(=O)C1NC(=O)c1ccccc1 (stereo unspecified)
inactive

What call does the record list for COc1ccc2nc(NC(=O)Nc3c(F)cccc3F)sc2c1 ?
inactive

# lookup: test call for CNC(=O)c1cc(Oc2ccc(NC(=O)Nc3ccc(Cl)c(OC4CCCCC4)c3)c(F)c2)ccn1
inactive

----------
# Test system: UO-31 renal
# protocol_details: NCI-60 one-dose screen, 48 h
# test_settings: 10 µM
About 83,000 compounds went through this panel and 20% of them were active in at least one assay; those are over-represented in the sample as a whole. Active and inactive are the calls of the source. How the source made its calls: active means growth percent below 10; inactive means the rest.
Give one outcome, nothing more. List: active, inactive

Could you kindly confirm the outcome this assay logged for Cc1ccc(-c2cc(C(=O)Nc3ccc(S(=O)(=O)N4CCCCC4)cc3)[nH]n2)c(O)c1 ?
inactive

Recorded call for COc1cc(C2CC(=O)Nc3c2c(C)nn3-c2nc3ccccc3[nH]2)cc(OC)c1O (stereo not given) ?
active

Recorded test call requested for C=CCNCCCN1C(=O)c2ccc3c4c(ccc(c24)C1=O)C(=O)N(CCCNCC=C)C3=O
active

What did this assay record as the result for COc1ccc(-c2nnc(SC/C(=N\O)c3ccccc3)o2)cc1 ?
inactive

Assay outcome for CC(=O)c1c(O)cc2c3c1OC(C)(C)C1CCC(C)(CC31)O2 (stereo not given) : what was it?
inactive

----------
# System: M14 melanoma
# protocol_details: NCI-60 one-dose screen, 48 h (100 = growth as untreated, 0 = no growth, -100 = all killed)
# test_settings: 10 µM
About 83,000 compounds went through this panel and 20% of them were active in at least one assay; those are over-represented in the sample as a whole.
For each record, write down the corresponding growth.
Answer in %, number only, no unit symbol.

Any idea what its growth is? The compound is N#C/C(=C\N1C(=O)/C(=C/c2cccc([N+](=O)[O-])c2)SC1=S)c1nc2ccccc2s1
81

Which growth is listed for Nc1c(CNCc2nnn(Cc3ccccc3)c2N)nnn1Cc1ccccc1 ?
98.5

Need growth of COc1cccc(-c2nnc(COc3ccc(-c4nc5ccccc5[nH]4)cc3OC)o2)c1 , thanks.
103

Return reported growth; argument: CCOC(=O)c1cc2c(n1Cc1cc(OC)cc(OC)c1)-c1oncc1CC2
1.54

I would be grateful if you could share the reported growth for O=C(C=P(c1ccccc1)(c1ccccc1)c1ccccc1)c1ccc(Br)cc1 .
94.1

// returns reported growth for input CCOC(=O)C(=O)Cc1cccnn1
103

Record request: growth value, item C=CCNCCCN1C(=O)c2ccc3c4c(ccc(c24)C1=O)C(=O)N(CCCNCC=C)C3=O
-84.8

# get_value(readout='growth', item= COc1cc(-c2n/c(=C\c3c(O)[nH]c4ccccc34)cc3c2=Nc2ccccc2-3)cc(OC)c1OC )
-5.09

Look up growth: Nc1ccc(C2=CC(c3ccc(Cl)cc3)N3C=CSC3=N2)cc1 (stereo unspecified)
-71.1

Form field: reported growth of C=C[C@]1(C)C=C2C(=O)[C@@]3(O)OC(=O)[C@@]4(CCCC(C)(C)[C@H]34)[C@@]2(O)CC1
-89

Item Cc1nnc2c3nnc(-c4ccc(Cl)cc4)n3c3ccccc3n12 has what recorded growth?
96.7

Quick one: growth for C/C(=N/NC(=O)c1sc(=S)n(C)c1N)c1cc2cc(Cl)ccc2o1 ?
91.7

Reported growth for NC(=O)C12C(=O)NC(=O)C1(C(=O)O)C21CCCC1 (stereo unspecified) : what is it?
105

# get_value(readout='growth', item= Nc1c(C(=O)NC2CCCCC2)sc2nc3c(cc12)C(=O)CCC3 )
103

Query (compound): COc1cc(CSc2nc3ccc(Cl)cc3c(=O)n2-c2ccccc2)cc(OC)c1OC ; field requested: growth
93.2

Please give the measured growth for this compound: COc1ccc(Nc2nc(NCc3ccccc3)c3ccccc3n2)cc1
76.9

Data request, read-out growth, for Cc1cc(/C=C2\SC(=Nc3ccccc3)N(C3CCCC3)C2=O)c(C)n1-c1ccc(Cl)cc1
-69.9

Would you mind telling me what growth value was observed for O=C(Cn1ccc(=O)[nH]c1=O)c1ccc([N+](=O)[O-])o1 ?
91.4

Look at this compound and give its reported growth. O=[N+]([O-])c1cc2ncccc2c2ncccc12
84.5

// returns reported growth for input COc1cc(C)c2sc3ccccc3c(=O)c2c1NCCN(C)C
24

Need growth, item COc1ccc(-c2cc(/C=C3\C(=O)Nc4cc(Cl)ccc43)[nH]n2)cc1OC
68

----------
Please respond with reported growth for every item in the list.
# Tested on: M14 melanoma
# protocol_details: NCI-60 one-dose screen, 48 h (100 = growth as untreated, 0 = no growth, -100 = all killed)
# test_settings: 10 µM
Compounds without any hit were thinned out: in the full panel of roughly 83,000, 20% have a hit. Active and inactive are the calls of the source. Rule for the calls: active = growth percent below 10; inactive = the rest.

Lab note: need growth for CC1=CSC2=NC(c3ccc(Cl)c(Cl)c3)=CC(c3ccc(Cl)cc3)N12 (stereo unspecified) on M14 melanoma, anyone have it?
0.183% (active)

I'm curious: which growth was measured for FC(F)(F)c1ccc(-c2cnc(Cl)nc2NCc2cc(C(F)(F)F)cc(C(F)(F)F)c2)cc1 tested on M14 melanoma?
41% (inactive)

What value of growth on M14 melanoma does COc1cc(-c2nc3cc(Cl)c(Cl)cc3[nH]2)ccc1OCC(=O)NN have?
95.1% (inactive)

Look up growth with M14 melanoma for this compound: CC(=O)Oc1c(C)c(C)c2c(c1C)CCC(C)(CC(=O)OCCCCCCCCCCC[P+](c1ccccc1)(c1ccccc1)c1ccccc1)O2 (stereo unspecified)
-87.5% (active)

API: value(readout=growth, system=M14 melanoma) for record CCCCCC(=O)N1c2ccccc2NC2=C(C(=O)CC(c3ccc(OC)c(OC)c3)C2)C1c1ccc(C(F)(F)F)cc1 (stereo unspecified)
58.3% (inactive)

Hi! What's the reported growth for O=C(NCCc1nccs1)c1cnc2c(S)cccc2c1 on M14 melanoma?
10.7% (inactive)

GET /values?readout=growth&system=M14 melanoma&item= Cc1cnc(C=O)c2cccc([N+](=O)[O-])c12
95.9% (inactive)

Form field - read-out: growth; system: M14 melanoma; submitted item: NC(=O)c1ccc(Br)o1
108% (inactive)

Report growth for N#CC1C=Cc2c(ccc3ccccc23)N1C(=O)c1ccccc1 (stereo unspecified) tested on M14 melanoma.
7.78% (active)

What growth appears in the records for this compound with M14 melanoma? COc1cc(C2c3cc4c(cc3C(O)C(CO)C2CO)OCO4)cc(OC)c1OC (stereo unspecified)
22.5% (inactive)

Form field: growth recorded for CCN(CC)CCCOC(=O)Nc1ccccc1Cl with M14 melanoma (enter value)
107% (inactive)

Provide the documented growth with M14 melanoma as the system for CN1/C(=C\C(I)C(I)C2=[N+](C)c3ccccc3C2(C)C)C(C)(C)c2ccccc21 (stereo unspecified)
20.3% (inactive)

Please provide the recorded growth for O=C(Nc1cccc(-c2nc3ccccc3[nH]2)c1)c1cccc(NC(=O)c2ccco2)c1 , tested on M14 melanoma.
3.76% (active)

Identify the measured growth of [O-]c1c[n+](-c2ccc(Cl)cc2)no1 for M14 melanoma.
104% (inactive)

Any idea what growth came out for Cc1ccc2nc3[nH]c(=O)[nH]c(=O)c3c(N)c2c1 on M14 melanoma?
96% (inactive)

GET /values?readout=growth&system=M14 melanoma&item= O/N=C1\CCC2CCCCC2C1 (stereo unspecified)
102% (inactive)

# returns recorded growth (system: M14 melanoma) for COc1cccc(C(=O)NNc2nc(N3CCOCC3)nc(N3CCN(C(c4ccccc4)c4ccccc4)CC3)n2)c1
114% (inactive)

Fill in the recorded growth for this compound, with M14 melanoma as test system: O=c1oc2c3ccc4cnccc4c3[nH]c2c2ccccc12
67.3% (inactive)

Test system M14 melanoma; read-out growth; what value for Cc1ccc(-n2c(-c3cc4c([nH]c5ccccc54)c(-c4cccc(O)c4)n3)n[nH]c2=S)cc1 ?
-40.1% (active)

# value lookup — system M14 melanoma, readout growth, item O=C(O)CCCCSCCCCC(=O)O
103% (inactive)

For M14 melanoma, provide growth of COc1cccc2c1C(=O)c1c(O)c3c(c(O)c1C2=O)C[C@@](O)(C(=O)COC(=O)c1cccnc1)C[C@@H]3OC1CC(N)C(O)C(C)O1 (stereo partly specified) please.
-43.4% (active)

Data origin, for the record: PubChem BioAssay (NCI)
